assay: Tmax in Swiss mouse brain at 30 mg/kg, po; format: ADME, organism-based; set-up: dose 30 mg/kg, route oral
measured metric: Tmax (min)

- Cc1cc(C(=O)O)n[nH]1: 30

----------
assay: Plasma clearance in Wistar rat plasma at 1 mg/kg, iv; assay type: ADME, organism-based; design: dose 1 mg/kg, route intravenous
Rule for this label: yes means clearance is less than 9 mL/min/kg; no means clearance is at least 9 mL/min/kg.

- O=C(O)c1cc2occc2[nH]1: yes
- Oc1noc2cc(Cl)ccc12: yes
- O=c1[nH]c2ccc(F)c(Cl)c2cc1O: no
- O=c1[nH]c2cccc(Cl)c2cc1O: no
